system: Aspergillus fumigatus; experiment: Antifungal activity against 10^5 CFU/mL Aspergillus fumigatus MTCC 343 after 48 hrs by disc diffusion technique; type: functional
Measured inhibition zone (IZ) of individual entries
I only need the number, in mm, no unit after it.

Guide cases for inhibition zone (IZ), answers given:
INSERT INTO results (compound, measured_target, observed_result) VALUES
  ('N#Cc1ccc(Nc2nc(Oc3ccnc4ccccc34)nc(N3CCN(c4cccc(Cl)c4Cl)CC3)n2)cc1C(F)(F)F', 'Aspergillus fumigatus', 25),
  ('CC(=O)N1CCN(c2nc(Nc3ccc(C#N)c(C(F)(F)F)c3)nc(Oc3ccnc4ccccc34)n2)CC1', 'Aspergillus fumigatus', 21),
  ('CC(C)N1CCN(c2nc(Nc3ccc(C#N)c(C(F)(F)F)c3)nc(Oc3ccnc4ccccc34)n2)CC1', 'Aspergillus fumigatus', 17),
  ('N#Cc1ccc(Nc2nc(Oc3ccnc4ccccc34)nc(N3CCN(c4ccccn4)CC3)n2)cc1C(F)(F)F', 'Aspergillus fumigatus', 12),
  ('N#Cc1ccc(Nc2nc(Oc3ccnc4ccccc34)nc(N3CCN(C(c4ccccc4)c4ccccc4)CC3)n2)cc1C(F)(F)F', 'Aspergillus fumigatus', 20);

stdin: Look at this compound and give its reported inhibition zone (IZ). `N#Cc1ccc(Nc2nc(Oc3ccnc4ccccc34)nc(N3CCN(c4ccccc4F)CC3)n2)cc1C(F)(F)F`
stdout: 25

stdin: # input compound: `N#Cc1ccc(Nc2nc(Oc3ccnc4ccccc34)nc(N3CCN(c4cccc(C(F)(F)F)c4)CC3)n2)cc1C(F)(F)F` ; wanted: its inhibition zone (IZ)
stdout: 27

stdin: Could you share which inhibition zone (IZ) value was measured for N#Cc1ccc(Nc2nc(Oc3ccnc4ccccc34)nc(N3CCN(C(c4ccccc4)c4ccc(Cl)cc4)CC3)n2)cc1C(F)(F)F (stereo not drawn) ?
stdout: 26

stdin: Bench note: what inhibition zone (IZ) did CC1CC(C)CN(c2nc(Nc3ccc(C#N)c(C(F)(F)F)c3)nc(Oc3ccnc4ccccc34)n2)C1 (stereo not drawn) show?
stdout: 25

stdin: Find the recorded inhibition zone (IZ) belonging to `N#Cc1ccc(Nc2nc(Oc3ccnc4ccccc34)nc(N3CCN(c4ccccc4Cl)CC3)n2)cc1C(F)(F)F` and report it.
stdout: 21

---

Reported inhibition zone (IZ) values for a set of compounds
system: Shigella flexneri; experiment: Antibacterial activity against 10^5 CFU/mL Shigella flexneri MTCC 1457 after 24 hrs by disc diffusion technique; format: functional
Number only, in mm; omit the unit.

Would you please look over these solved cases?
INSERT INTO measurements (compound, measured_target, observed_result) VALUES
  ('CC1CC(C)CN(c2nc(Nc3ccc(C#N)c(C(F)(F)F)c3)nc(Oc3ccnc4ccccc34)n2)C1 (stereo not drawn)', 'Shigella flexneri', 25),
  ('N#Cc1ccc(Nc2nc(Oc3ccnc4ccccc34)nc(N3CCN(c4ncccn4)CC3)n2)cc1C(F)(F)F', 'Shigella flexneri', 17),
  ('N#Cc1ccc(Nc2nc(Oc3ccnc4ccccc34)nc(N3CCN(c4ccccn4)CC3)n2)cc1C(F)(F)F', 'Shigella flexneri', 16);

stdin: Return reported inhibition zone (IZ); argument: `N#Cc1ccc(Nc2nc(Oc3ccnc4ccccc34)nc(N3CCN(c4cccc(C(F)(F)F)c4)CC3)n2)cc1C(F)(F)F`
stdout: 25

stdin: Name the recorded inhibition zone (IZ) for `COc1ccc(CN2CCN(c3nc(Nc4ccc(C#N)c(C(F)(F)F)c4)nc(Oc4ccnc5ccccc45)n3)CC2)c(OC)c1OC` .
stdout: 25

stdin: Please give the measured inhibition zone (IZ) for this compound: `N#Cc1ccc(Nc2nc(Oc3ccnc4ccccc34)nc(N3CCN(c4ccccc4Cl)CC3)n2)cc1C(F)(F)F`
stdout: 21

---

tested on: Aspergillus fumigatus; assay: Antifungal activity against 10^5 CFU/mL Aspergillus fumigatus MTCC 343 after 48 hrs by agar streak dilution method; assay type: functional; conditions: MTCC 343, 48 h
parameter.measured: MIC (µg/mL)
Write the value in µg/mL as a bare number.

INSERT INTO results (compound, parameter_measured, observed_result) VALUES
  ('N#Cc1ccc(Nc2nc(Oc3ccnc4ccccc34)nc(N3CCN(c4ccccc4F)CC3)n2)cc1C(F)(F)F', 'MIC', 25),
  ('N#Cc1ccc(Nc2nc(Oc3ccnc4ccccc34)nc(N3CCN(c4cccc(Cl)c4Cl)CC3)n2)cc1C(F)(F)F', 'MIC', 25),
  ('CC(=O)N1CCN(c2nc(Nc3ccc(C#N)c(C(F)(F)F)c3)nc(Oc3ccnc4ccccc34)n2)CC1', 'MIC', 100);

stdin: Returns the measured MIC for the input compound. Input: `CN1CCN(c2nc(Nc3ccc(C#N)c(C(F)(F)F)c3)nc(Oc3ccnc4ccccc34)n2)CC1`
stdout: 100

---

tested on: Bacillus cereus; experiment: Antibacterial activity against 10^5 CFU/mL Bacillus cereus MTCC 619 after 24 hrs by agar streak dilution method; assay type: functional; conditions: MTCC 619, 24 h
List of MIC values.
The response must be a number in µg/mL with no trailing unit.

Solved entries (count: 3):
INSERT INTO results (molecule, observed_result) VALUES
  ('N#Cc1ccc(Nc2nc(Oc3ccnc4ccccc34)nc(N3CCN(c4cccc(C(F)(F)F)c4)CC3)n2)cc1C(F)(F)F', 6.25),
  ('N#Cc1ccc(Nc2nc(Oc3ccnc4ccccc34)nc(N3CCN(c4ccccc4Cl)CC3)n2)cc1C(F)(F)F', 12.5),
  ('CC1CC(C)CN(c2nc(Nc3ccc(C#N)c(C(F)(F)F)c3)nc(Oc3ccnc4ccccc34)n2)C1 (centres undefined)', 12.5);

stdin: Would you mind telling me what MIC value was observed for `N#Cc1ccc(Nc2nc(Oc3ccnc4ccccc34)nc(N3CCN(c4ccccn4)CC3)n2)cc1C(F)(F)F` ?
stdout: 100

stdin: Which MIC value is on record for `N#Cc1ccc(Nc2nc(Oc3ccnc4ccccc34)nc(N3CCN(c4cccc(Cl)c4Cl)CC3)n2)cc1C(F)(F)F` ?
stdout: 6.25

stdin: Tell me the measured MIC of `N#Cc1ccc(Nc2nc(Oc3ccnc4ccccc34)nc(N3CCN(c4ccccc4F)CC3)n2)cc1C(F)(F)F` , please.
stdout: 6.25

stdin: Suppose we examine the molecule `N#Cc1ccc(Nc2nc(Oc3ccnc4ccccc34)nc(N3CCN(c4ccc(F)cc4)CC3)n2)cc1C(F)(F)F` ; what MIC value has been reported?
stdout: 6.25

stdin: What MIC value was documented for this molecule, `N#Cc1ccc(Nc2nc(Oc3ccnc4ccccc34)nc(N3CCN(Cc4ccccc4)CC3)n2)cc1C(F)(F)F` ?
stdout: 100

stdin: Given the molecule `N#Cc1ccc(Nc2nc(Oc3ccnc4ccccc34)nc(N3CCN(c4ccccc4)CC3)n2)cc1C(F)(F)F` , what is its reported MIC?
stdout: 100

---

Entries annotated with measured inhibition zone (IZ)
test system: Staphylococcus aureus; assay: Antibacterial activity against 10^5 CFU/mL Staphylococcus aureus MTCC 96 after 24 hrs by disc diffusion technique; assay type: functional

INSERT INTO assay_data (structure_smiles, parameter_measured, observed_result) VALUES
  ('N#Cc1ccc(Nc2nc(Oc3ccnc4ccccc34)nc(N3CCOCC3)n2)cc1C(F)(F)F', 'inhibition zone (IZ)', '14 mm');

stdin: What is its inhibition zone (IZ) for Staphylococcus aureus? Entry: `N#Cc1ccc(Nc2nc(Oc3ccnc4ccccc34)nc(N3CCN(c4cccc(C(F)(F)F)c4)CC3)n2)cc1C(F)(F)F`
stdout: 28 mm

stdin: Query inhibition zone (IZ) on Staphylococcus aureus for `N#Cc1ccc(Nc2nc(Oc3ccnc4ccccc34)nc(N3CCC(Cc4ccccc4)CC3)n2)cc1C(F)(F)F`
stdout: 24 mm

stdin: Query for Staphylococcus aureus: what inhibition zone (IZ) does the record show for `N#Cc1ccc(Nc2nc(Oc3ccnc4ccccc34)nc(N3CCN(c4ccccc4)CC3)n2)cc1C(F)(F)F` ?
stdout: 14 mm

stdin: Give inhibition zone (IZ) (Staphylococcus aureus) of the following compound: `CC(=O)N1CCN(c2nc(Nc3ccc(C#N)c(C(F)(F)F)c3)nc(Oc3ccnc4ccccc34)n2)CC1`
stdout: 26 mm

---

test system: Aspergillus fumigatus; test: Antifungal activity against 10^5 CFU/mL Aspergillus fumigatus MTCC 343 after 48 hrs by disc diffusion technique; assay type: functional
parameter.measured: inhibition zone (IZ)

Would you please look over these solved cases?
INSERT INTO assay_data (structure_smiles, observed_result) VALUES
  ('CCN1CCN(c2nc(Nc3ccc(C#N)c(C(F)(F)F)c3)nc(Oc3ccnc4ccccc34)n2)CC1', '<10 mm'),
  ('N#Cc1ccc(Nc2nc(Oc3ccnc4ccccc34)nc(N3CCN(c4ccccc4)CC3)n2)cc1C(F)(F)F', '<10 mm');

Now consider the entry below.
stdin: I'd like to know its inhibition zone (IZ). The molecule in question is `N#Cc1ccc(Nc2nc(Oc3ccnc4ccccc34)nc(N3CCC(Cc4ccccc4)CC3)n2)cc1C(F)(F)F`
stdout: <10 mm

---

tested on: Aspergillus fumigatus; test: Antifungal activity against 10^5 CFU/mL Aspergillus fumigatus MTCC 343 after 48 hrs by agar streak dilution method; type: functional; conditions: MTCC 343, 48 h
parameter.measured: MIC

A selection of reference data follows.
INSERT INTO results (molecule, observed_result) VALUES
  ('CC(C)N1CCN(c2nc(Nc3ccc(C#N)c(C(F)(F)F)c3)nc(Oc3ccnc4ccccc34)n2)CC1', '100 µg/mL'),
  ('N#Cc1ccc(Nc2nc(Oc3ccnc4ccccc34)nc(N3CCN(c4ncccn4)CC3)n2)cc1C(F)(F)F', '100 µg/mL'),
  ('COc1ccc(N2CCN(c3nc(Nc4ccc(C#N)c(C(F)(F)F)c4)nc(Oc4ccnc5ccccc45)n3)CC2)cc1', '25 µg/mL'),
  ('CC1CC(C)CN(c2nc(Nc3ccc(C#N)c(C(F)(F)F)c3)nc(Oc3ccnc4ccccc34)n2)C1 (stereo not given)', '50 µg/mL'),
  ('N#Cc1ccc(Nc2nc(Oc3ccnc4ccccc34)nc(N3CCN(c4ccc(F)cc4)CC3)n2)cc1C(F)(F)F', '50 µg/mL');

stdin: Param readout= MIC; system= Aspergillus fumigatus; entry= `N#Cc1ccc(Nc2nc(Oc3ccnc4ccccc34)nc(N3CCOCC3)n2)cc1C(F)(F)F` ; returns value.
stdout: 100 µg/mL

stdin: Write down the reported MIC of CC(=O)N1CCN(c2ccc(OCC3COC(Cn4ccnc4)(c4ccc(Cl)cc4Cl)O3)cc2)CC1 (stereo not given) , test system: Aspergillus fumigatus.
stdout: ≤ 1 µg/mL

stdin: Aspergillus fumigatus / MIC / `CCN1CCN(c2nc(Nc3ccc(C#N)c(C(F)(F)F)c3)nc(Oc3ccnc4ccccc34)n2)CC1` : value?
stdout: 100 µg/mL

stdin: Form: Entry = N#Cc1ccc(Nc2nc(Oc3ccnc4ccccc34)nc(N3CCN(C(c4ccccc4)c4ccc(Cl)cc4)CC3)n2)cc1C(F)(F)F (stereo not given) | System = Aspergillus fumigatus | MIC = ____
stdout: 25 µg/mL

stdin: Please provide the recorded MIC for `N#Cc1ccc(Nc2nc(Oc3ccnc4ccccc34)nc(N3CCN(c4ccccc4Cl)CC3)n2)cc1C(F)(F)F` , tested on Aspergillus fumigatus.
stdout: 100 µg/mL
